assayedSystem: human KCNQ2 and KCNQ3 (Homo sapiens, UniProt O43525+O43526)
Construct: expressed in transfected cells; host or cells: HEK293
Sequence (O43526 whole entry): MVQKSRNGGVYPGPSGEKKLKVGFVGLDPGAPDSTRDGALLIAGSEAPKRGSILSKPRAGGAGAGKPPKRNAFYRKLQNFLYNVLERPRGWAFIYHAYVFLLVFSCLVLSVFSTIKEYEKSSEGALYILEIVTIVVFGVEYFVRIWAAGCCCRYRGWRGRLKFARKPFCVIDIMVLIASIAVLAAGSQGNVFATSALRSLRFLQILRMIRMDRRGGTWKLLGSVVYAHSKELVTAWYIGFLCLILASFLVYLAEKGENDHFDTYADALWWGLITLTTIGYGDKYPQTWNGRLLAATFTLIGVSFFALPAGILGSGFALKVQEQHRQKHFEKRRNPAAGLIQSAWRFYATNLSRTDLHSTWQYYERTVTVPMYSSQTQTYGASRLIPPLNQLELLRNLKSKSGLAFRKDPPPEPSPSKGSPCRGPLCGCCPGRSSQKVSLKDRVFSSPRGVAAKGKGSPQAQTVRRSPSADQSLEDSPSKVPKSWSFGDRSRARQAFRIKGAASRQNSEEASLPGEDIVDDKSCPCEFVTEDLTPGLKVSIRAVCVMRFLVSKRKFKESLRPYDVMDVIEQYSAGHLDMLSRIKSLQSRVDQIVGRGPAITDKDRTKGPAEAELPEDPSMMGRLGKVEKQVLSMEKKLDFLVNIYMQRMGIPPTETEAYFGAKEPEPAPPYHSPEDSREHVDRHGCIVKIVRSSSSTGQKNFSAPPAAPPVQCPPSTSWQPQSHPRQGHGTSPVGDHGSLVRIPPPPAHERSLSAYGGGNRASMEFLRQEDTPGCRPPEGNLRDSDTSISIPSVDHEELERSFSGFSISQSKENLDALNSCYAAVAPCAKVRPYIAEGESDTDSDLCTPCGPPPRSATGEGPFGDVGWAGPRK
Sequence (O43525 whole entry): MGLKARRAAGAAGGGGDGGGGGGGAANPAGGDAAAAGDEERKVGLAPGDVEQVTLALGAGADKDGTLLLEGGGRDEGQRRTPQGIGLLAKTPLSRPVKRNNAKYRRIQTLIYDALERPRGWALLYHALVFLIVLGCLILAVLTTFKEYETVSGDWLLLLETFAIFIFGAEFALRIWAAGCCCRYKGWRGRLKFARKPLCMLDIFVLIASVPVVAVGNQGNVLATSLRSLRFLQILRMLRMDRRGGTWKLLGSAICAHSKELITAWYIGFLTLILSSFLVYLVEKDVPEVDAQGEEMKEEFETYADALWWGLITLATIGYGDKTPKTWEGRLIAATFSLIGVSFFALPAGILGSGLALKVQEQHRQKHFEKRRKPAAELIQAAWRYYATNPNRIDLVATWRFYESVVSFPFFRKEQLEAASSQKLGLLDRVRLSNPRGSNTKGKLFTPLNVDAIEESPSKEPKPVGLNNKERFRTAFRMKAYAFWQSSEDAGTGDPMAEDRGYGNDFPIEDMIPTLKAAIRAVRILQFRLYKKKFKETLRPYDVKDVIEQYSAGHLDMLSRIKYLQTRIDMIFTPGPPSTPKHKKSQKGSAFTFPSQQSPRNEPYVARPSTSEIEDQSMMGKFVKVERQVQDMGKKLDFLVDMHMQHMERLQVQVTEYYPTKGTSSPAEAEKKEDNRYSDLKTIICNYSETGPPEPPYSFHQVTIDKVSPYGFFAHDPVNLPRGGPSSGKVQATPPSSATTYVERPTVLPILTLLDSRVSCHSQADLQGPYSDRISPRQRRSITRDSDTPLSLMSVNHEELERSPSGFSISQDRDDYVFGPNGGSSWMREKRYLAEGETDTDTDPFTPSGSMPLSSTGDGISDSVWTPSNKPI
assayText: KCNQ 2/3 channel activation, thallium flux FLIPR assay (BTC-AM dye) in HEK293 cells
Format: cell-based
experimentalContext: HEK293, maximum response relative to response of retigabine at 10 μM set at 100%; read-out: Max response
readoutLabel: Emax (%)
Answer format: numeric, % implied, no suffix.

[[record]]
compound = "CCc1nc2ccccc2c(=O)n1NC(=O)CC1CC2CCC1C2 (racemic)"
readoutlabel = "Emax"
measurement = 150

[[record]]
compound = "O=C(CC12CC3CC(CC(C3)C1)C2)Nn1cnc2ccsc2c1=O"
readoutlabel = "Emax"
measurement = 140

[[record]]
compound = "Cc1cc2c(=O)n(NC(=O)CC34CC5CC(CC(C5)C3)C4)c(C)nc2s1"
readoutlabel = "Emax"
measurement = 56.7

[[record]]
compound = "CCc1nc2ccccc2c(=O)n1NC(=O)CC12CC3CC(CC(C3)C1)C2"
readoutlabel = "Emax"
measurement = 124

[[record]]
compound = "CC(C)c1nc2ccccc2c(=O)n1NC(=O)C[C@@H]1C[C@@H]2CC(=O)C[C@@H](C2)C1"
readoutlabel = "Emax"
measurement = 58

[[record]]
compound = "Cc1nc2cc(Cl)ccc2c(=O)n1NC(=O)CC12CC3CC(CC(C3)C1)C2"
readoutlabel = "Emax"
measurement = 20.8

[[record]]
compound = "CC(C)c1nc2ccccc2c(=O)n1NC(=O)CC1C2CC3CC(C2)CC1C3 (centres unmarked)"
readoutlabel = "Emax"
measurement = 88.8

[[record]]
compound = "Cc1nc2ccccc2c(=O)n1NC(=O)CC12CC3CC(CC(C3)C1)C2"
readoutlabel = "Emax"
measurement = 108

[[record]]
compound = "CCc1nc2sccc2c(=O)n1NC(=O)CC1CC2CCC1C2 (racemic)"
readoutlabel = "Emax"
measurement = 158

[[record]]
compound = "O=C(Nn1c(-c2ccccc2)nc2ccccc2c1=O)C1CC2CCC1C2 (racemic)"
readoutlabel = "Emax"
measurement = 34.3


Per the records, this compound ( CC(C)c1nc2ccccc2c(=O)n1NC(=O)CC12CC3CC(CC(C3)C1)C2 ) has Emax equal to 122

###

assayedSystem: human KCNQ2 and KCNQ3 (Homo sapiens, UniProt O43525+O43526)
Construct: expressed in transfected cells; host or cells: HEK293
assayText: KCNQ 2/3 channel activation, thallium flux FLIPR assay (BTC-AM dye) in HEK293 cells
Format: cell-based
experimentalContext: HEK293, maximum response relative to response of retigabine at 10 μM set at 100%; read-out: Max response
readoutLabel: Emax (%)
Answer format: numeric, % implied, no suffix.

As a guide, the following entries are already answered.
[[record]]
compound = "O=C(Nn1c(-c2ccccc2)nc2ccccc2c1=O)[C@@H]1[C@H]2[C@@H]3CC[C@@H](C3)[C@@H]12 [Example 39]"
measurement = -23.5

[[record]]
compound = "Cc1nc2sc3c(c2c(=O)n1NC(=O)CC12CC4CC(CC(C4)C1)C2)CCC3 [Example 45]"
measurement = 19.6

[[record]]
compound = "CC(=O)Nn1c(C23CC4CC(CC2C4)C3)nc2ccccc2c1=O [Example 4]"
measurement = 60.4

[[record]]
compound = "CC(C)c1nc2ccccc2c(=O)n1NC(=O)[C@H]1C[C@@H]2C=C[C@H]1C2 (racemic) [Example 32]"
measurement = 99.2

[[record]]
compound = "CCc1cc2c(=O)n(NC(=O)CC34CC5CC(CC(C5)C3)C4)cnc2s1 [Example 20]"
measurement = 139


Per the records, this compound ( O=C(CC12CC3CC(CC(Cl)(C3)C1)C2)Nn1c(C2CC2)nc2cc(C(F)(F)F)ccc2c1=O [Example 50] ) has Emax equal to -0.535

Per the records, this compound ( CCc1nc2ccccc2c(=O)n1NC(=O)C[C@@H]1C[C@@H]2CC[C@@H](C2)C1 [Example 55] ) has Emax equal to 150

Per the records, this compound ( CCc1nc2ccccc2c(=O)n1NC(=O)[C@@H]1[C@H]2[C@@H]3CC[C@@H](C3)[C@@H]12 [Example 58] ) has Emax equal to 11.6

Per the records, this compound ( CC(C)c1nc2ccccc2c(=O)n1NC(=O)CCC12CC3CC(CC(C3)C1)C2 [Example 13] ) has Emax equal to 172

Per the records, this compound ( O=C(CC12CC3CC(CC(C3)C1)C2)Nn1cnc2scc(-c3ccc(F)cc3)c2c1=O [Example 27] ) has Emax equal to 199

Per the records, this compound ( O=C(CCC12CC3CC(CC(C3)C1)C2)Nn1c(-c2ccccc2)nc2ccccc2c1=O [Example 15] ) has Emax equal to 79.7

Per the records, this compound ( Cc1nc2sccc2c(=O)n1NC(=O)CC12CC3CC(CC(C3)C1)C2 [Example 17] ) has Emax equal to 61.1

###

# maps each entry to its EC50
assayedSystem: human KCNQ2 and KCNQ3 (Homo sapiens, UniProt O43525+O43526)
assayText: KCNQ 2/3 channel activation, thallium flux FLIPR assay (BTC-AM dye) in HEK293 cells
experimentalContext: HEK293 cells stably expressing human KCNQ2 and KCNQ3; compound incubated 4 minutes; Tl+ flux fluorescence
Answer format: numeric, nM implied, no suffix.

As a guide, the following entries are already answered.
[[record]]
molecule = "CCc1nc2ccccc2c(=O)n1NC(=O)CC1C2CCCC1CCC2 (stereo not shown)"
readoutlabel = "EC50"
measurement = 344

[[record]]
molecule = "O=C(Cc1ccc(Cl)cc1)Nn1c(C23CC4CC(CC2C4)C3)nc2ccccc2c1=O"
readoutlabel = "EC50"
measurement = 198

[[record]]
molecule = "CC(C)c1nc2ccccc2c(=O)n1NC(=O)CC1CC2CCC1C2 (racemic) [Example 42]"
readoutlabel = "EC50"
measurement = 86.8

[[record]]
molecule = "O=C(CC12CC3CC(CC(Cl)(C3)C1)C2)Nn1c(C2CC2)nc2cc(F)ccc2c1=O"
readoutlabel = "EC50"
measurement = 250

[[record]]
molecule = "CC(=O)Nn1c(C23CC4CC(CC2C4)C3)nc2ccccc2c1=O"
readoutlabel = "EC50"
measurement = 2720

[[record]]
molecule = "O=C(Nn1c(-c2ccccc2)nc2ccccc2c1=O)[C@@H]1C[C@@H]2C=C[C@H]1C2 (racemic)"
readoutlabel = "EC50"
measurement = 840


Per the records, this molecule ( CCc1nc2sccc2c(=O)n1NC(=O)CC12CC3CC(CC(C3)C1)C2 ) has EC50 equal to 691

Per the records, this molecule ( O=C(CC1CC2CCC1C2)Nn1c(-c2ccccc2)nc2ccccc2c1=O (racemic) ) has EC50 equal to 535

Per the records, this molecule ( CC(C)c1nc2ccccc2c(=O)n1NC(=O)CC1CC2CCC1C2 (racemic) [Example 11] ) has EC50 equal to 90.6

Per the records, this molecule ( CCc1nc2sccc2c(=O)n1NC(=O)CC1CC2CCC1C2 (racemic) ) has EC50 equal to 1130

Per the records, this molecule ( CC(C)c1nc2ccccc2c(=O)n1NC(=O)CCC12CC3CC(CC(C3)C1)C2 ) has EC50 equal to 399

Per the records, this molecule ( CC(C)c1nc2ccccc2c(=O)n1NC(=O)[C@@H]1C[C@@H]2CC[C@H]1C2 (racemic) ) has EC50 equal to 404

###

# maps each entry to its EC50
assayedSystem: human KCNQ2 and KCNQ3 (Homo sapiens, UniProt O43525+O43526)
assayText: KCNQ 2/3 channel activation, thallium flux FLIPR assay (BTC-AM dye) in HEK293 cells
experimentalContext: HEK293 cells stably expressing human KCNQ2 and KCNQ3; compound incubated 4 minutes; Tl+ flux fluorescence
Experimental: The following example describes the assay that can be used to identify compounds that activate KCNQ 2/3 channels. HEK293 cells stably expressing human KCNQ2 and KCNQ3 were seeded in 96-well, black-walled, clear-bottomed, poly-D-lysine coated plates (BD Biosciences, Bedford, Mass.) at a density of 1×10^5 cells per well 24 hours before the assay. […] The fluorescence signal was initiated by adding 100 μL of assay buffer containing 6 mM TlNO3 and 10 mM K2SO4. […]
Answer format: numeric, µM implied, no suffix.

As a guide, the following entries are already answered.
[[record]]
compound = "Cc1sc2nc(C)n(NC(=O)CC34CC5CC(CC(C5)C3)C4)c(=O)c2c1-c1ccccc1"
unittext = "µM"
measurement = 0.454

[[record]]
compound = "Cc1sc2nc(C)n(NC(=O)CC34CC5CC(CC(C5)C3)C4)c(=O)c2c1C"
unittext = "µM"
measurement = 0.779

[[record]]
compound = "O=C(C[C@H]1C[C@@H]2CC[C@H]1C2)Nn1c(C2CC2)nc2cc(F)ccc2c1=O (racemic)"
unittext = "µM"
measurement = 0.0307

[[record]]
compound = "CC(C)c1nc2ccccc2c(=O)n1NC(=O)CC1CC2C=CC1C2 (racemic)"
unittext = "µM"
measurement = 0.747


Per the records, this compound ( CCc1nc2ccccc2c(=O)n1NC(=O)CC1CC2CCC1C2 (racemic) ) has EC50 equal to 0.386

Per the records, this compound ( O=C(CC12CC3CC(CC(C3)C1)C2)Nn1c(-c2ccccc2)nc2ccccc2c1=O ) has EC50 equal to 0.341

Per the records, this compound ( CCc1nc2sccc2c(=O)n1NC(=O)CC12CC3CC(CC(Cl)(C3)C1)C2 ) has EC50 equal to 7.91

Per the records, this compound ( O=C(CC12CC3CC(CC(C3)C1)C2)Nn1cnc2scc(-c3ccc(F)cc3)c2c1=O ) has EC50 equal to 0.846

Per the records, this compound ( CC(C)c1nc2ccccc2c(=O)n1NC(=O)CC12CC3CC(CC(C3)C1)C2 ) has EC50 equal to 0.148

Per the records, this compound ( CC(C)c1nc2ccccc2c(=O)n1NC(=O)[C@@H]1C[C@@H]2C=C[C@H]1C2 (racemic) ) has EC50 equal to 0.415

Per the records, this compound ( CC(C)c1nc2ccccc2c(=O)n1NC(=O)CC1C2CCCC1CCC2 (stereo not drawn) ) has EC50 equal to 0.104

Per the records, this compound ( O=C(CCC12CC3CC(CC(C3)C1)C2)Nn1c(-c2ccccc2)nc2ccccc2c1=O ) has EC50 equal to 0.309

Per the records, this compound ( CCc1nc2ccccc2c(=O)n1NC(=O)CC12CC3CC(CC(C3)C1)C2 ) has EC50 equal to 0.115

Per the records, this compound ( O=C(CCC1CCCC1)Nn1c(C23CC4CC(CC2C4)C3)nc2ccccc2c1=O ) has EC50 equal to 0.277

Per the records, this compound ( O=C(CC12CC3CC(CC(C3)C1)C2)Nn1cnc2ccc(Cl)cc2c1=O ) has EC50 equal to 0.261

Per the records, this compound ( O=C(Nn1c(-c2ccccc2)nc2ccccc2c1=O)C1CC2CCC1C2 (racemic) ) has EC50 equal to 0.54

Per the records, this compound ( Cc1cc2c(=O)n(NC(=O)CC34CC5CC(CC(C5)C3)C4)c(C)nc2s1 ) has EC50 equal to 0.652

Per the records, this compound ( Cc1nc2sc3c(c2c(=O)n1NC(=O)CC12CC4CC(CC(C4)C1)C2)CCCCC3 ) has EC50 equal to 10.9

Per the records, this compound ( CCc1nc2ccccc2c(=O)n1NC(=O)C[C@@H]1C[C@@H]2CC[C@@H](C2)C1 ) has EC50 equal to 0.417

Per the records, this compound ( CC(C)c1nc2ccccc2c(=O)n1NC(=O)CC1C2CC3CC(C2)CC1C3 (stereo not drawn) ) has EC50 equal to 0.138

Origin of the recorded values: patent US8962639B2
